tested on: RXRa DBDmut IVT, anti-RXR (DBD mutation: RXRa K156A/R161A, NR concentration 90 nM); experiment: PBM binding z-score (relative to random genomic background probes); higher = stronger binding; sequences stand for … in GC…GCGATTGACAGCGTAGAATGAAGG
Value Kind: PBM binding z-score
Reply with the value as a number alone.

These recorded examples may help you get a feel for the data.
ACTAGCAGGCCAAGTTTGGGTCTCTCAAACAAAG	-0.0597
CCTGCTAGGTCATGGTCACCTAATCTACAGTATG	1.77
ATATGTAGGTTATCGGGCCATTCAGTTTGCGCAT	0.832

Respond only with PBM binding z-score recorded for TCCAGTAGGTTACCAATGGGGCATTCAGCTTTCT 0.663

Respond only with PBM binding z-score recorded for CAGCCTAGGTCAGGGCCAGTGTAGGAGGAACGTT -0.674

Respond only with PBM binding z-score recorded for GCAGACAGGTGAAACGCAGGTAACCCAGGGTGGC -1.51
